assayed_system: Rap guanine nucleotide exchange factor 3 (Homo sapiens) (UniProt O95398)
Sequence (O95398 whole entry, looked up): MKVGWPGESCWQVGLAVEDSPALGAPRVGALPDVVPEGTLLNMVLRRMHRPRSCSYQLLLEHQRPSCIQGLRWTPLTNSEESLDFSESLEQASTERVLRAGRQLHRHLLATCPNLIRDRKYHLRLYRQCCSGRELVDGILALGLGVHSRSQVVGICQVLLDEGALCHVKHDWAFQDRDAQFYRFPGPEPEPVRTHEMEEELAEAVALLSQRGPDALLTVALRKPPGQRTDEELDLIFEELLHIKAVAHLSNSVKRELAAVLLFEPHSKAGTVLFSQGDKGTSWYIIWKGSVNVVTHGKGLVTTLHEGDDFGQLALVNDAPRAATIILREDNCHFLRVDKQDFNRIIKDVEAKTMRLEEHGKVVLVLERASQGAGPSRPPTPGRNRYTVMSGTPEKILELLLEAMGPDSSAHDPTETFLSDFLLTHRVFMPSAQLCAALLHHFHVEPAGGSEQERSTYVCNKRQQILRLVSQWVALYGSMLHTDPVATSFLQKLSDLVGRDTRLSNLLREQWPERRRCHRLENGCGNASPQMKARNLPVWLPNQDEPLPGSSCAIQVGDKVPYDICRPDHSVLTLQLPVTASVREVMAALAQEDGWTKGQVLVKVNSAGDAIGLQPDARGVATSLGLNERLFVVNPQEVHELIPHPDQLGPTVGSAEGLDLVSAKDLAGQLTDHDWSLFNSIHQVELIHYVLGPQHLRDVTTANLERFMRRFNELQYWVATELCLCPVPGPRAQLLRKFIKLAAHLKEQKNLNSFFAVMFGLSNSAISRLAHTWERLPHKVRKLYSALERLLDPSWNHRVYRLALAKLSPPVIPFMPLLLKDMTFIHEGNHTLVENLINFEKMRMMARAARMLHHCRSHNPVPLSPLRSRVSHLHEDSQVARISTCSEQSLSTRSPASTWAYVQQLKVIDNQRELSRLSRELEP
run_description: Confirmatory qHTS for antagonist of cAMP-regulated guanine nucleotide exchange factor 3 (EPAC1) (AID 1645880); note: nearly all actives have a fitted effect of over 55% in size
test_parameters: EPAC1 Rap1B-BODIPY-GDP exchange, fluorescence; series mostly up to 115 µM
Inconclusive results are not listed. Calls of active or inactive are those of the source. Calls come from the whole dose curve; as a rule, active = well fitted inhibition curve with a large enough effect; inconclusive = small, poorly fitted or top-dose-only effect; inactive = no such curve, though single readings can be large or run the other way.
Parameter call: string, one of active, inactive

Outcome? `COC(=O)c1cn(Cc2ccc(F)cc2)c2ccccc12`
inactive

Outcome? COC(=O)C1C2c3ccccc3C(c3ccccc32)C1(C)C(=O)OC (stereo not given)
inactive

Outcome? `O=Cc1c(C(=O)O)n(Cc2ccc(Cl)cc2)c2ccccc12`
inactive

Outcome? `CN1C(=O)/C(=C/c2cccn2-c2ccc3ccccc3c2)C(=O)NC1=S`
active

Outcome? `O=C1CN=C(c2ccccc2)c2cc(Cl)ccc2N1Cc1ccc(Cl)cc1`
inactive

Outcome? COc1ccc(C(SCC(NC(=O)OCc2ccccc2)C(=O)O)c2ccc(OC)cc2)cc1 (stereo not given)
inactive

Outcome? `O=[N+]([O-])c1ccc(CN2CC=C(c3ccccc3)CC2)cc1`
inactive

Outcome? `O=C(OC1CCN(CCCl)CC1)C(c1ccccc1)c1ccccc1`
inactive

Outcome? `Cc1cc(=O)oc2cc(OCC(=O)N3CCC(C(=O)O)(c4ccccc4)CC3)ccc12`
active

Outcome? CC(C)=CCCC1(C)C=Cc2c(O)c3c(c(CC=C(C)C)c2O1)OC12C(=CC4CC1C(C)(C)OC2(C/C=C(/C)C(=O)O)C4=O)C3=O (stereo not given)
active

###

Tested on: CP211
run_description: qHTS profiling for inhibitors of Plasmodium falciparum proliferation (AID 504749); note: nearly all actives have a fitted effect of over 60% in size; note: potency is the fitted concentration of half-maximal effect
test_parameters: P. falciparum in erythrocytes, SYBR Green DNA, 72 h; series mostly up to 28.7 µM
Inconclusive results are not listed. Calls of active or inactive are those of the source. The call rests on the fitted dose curve; in most records, active means well fitted inhibition curve with a large enough effect; inconclusive means small, poorly fitted or top-dose-only effect; inactive means flat fitted curve, though single readings scatter.
metric_name: Potency

Please review the entries below; each comes with its answer.
molecule	Potency
CNC(C)[C@@H](O)c1ccc(O)cc1 (stereo partly drawn)	inactive
C[C@@]12CC[C@H]3[C@@H](CC[C@@H]4C[C@H]5S[C@H]5C[C@]43C)[C@H]1CC[C@H]2O	inactive
C#CCN(C)[C@@H](C)Cc1ccccc1	inactive
C[C@@H]1O[C@H](O[C@@H]2C=C3CC[C@H]4[C@@H](CC[C@]5(C)[C@@H](c6ccc(=O)oc6)CC[C@]45O)[C@@]3(C)CC2)[C@@H](O)[C@H](O)[C@@H]1O	inactive
CC(C)c1c(CN(C)[C@@H](C)Cc2ccccc2)n(C)n(-c2ccccc2)c1=O	inactive
CN[C@@H](C)[C@H]1CC[C@@H](N)[C@@H](O[C@@H]2[C@@H](O)[C@@H](O[C@H]3OC[C@@](C)(O)[C@@H](NC)[C@@H]3O)[C@H](N)C[C@@H]2N)O1 (tested in a mixture with another compound)	inactive
COc1cc2c(cc1OC)[C@@]13CCN4CC5=CCOC6CC(=O)N2C1[C@H]6[C@@H]5C[C@@H]43 (stereo partly drawn)	inactive
CCC(C)C1O[C@]2(C=CC1C)CC1CC(C/C=C(\C)[C@H](OC3CC(OC)C(O[C@H]4CC(OC)[C@@H](O)C(C)O4)C(C)O3)[C@@H](C)/C=C/C=C3\COC4C(O)C(C)=C[C@H](C(=O)O1)[C@@]34O)O2 (stereo partly drawn)	12 µM (active)
CCN(CC)C(=O)N[C@@H]1C[C@@H]2c3cccc4[nH]cc(c34)C[C@H]2N(C)C1	3.38 µM (active)
CC([C@H](O)c1ccccc1)N(C)C (stereo partly drawn)	inactive

Request the reported Potency associated with `N[C@H]1C[C@H]1c1ccccc1`
inactive

Request the reported Potency associated with O=[As]O[As]=O (stereo not drawn)
12 µM (active)

Request the reported Potency associated with C[N+]1(C)[C@@H]2CC[C@H]1CC(OC(=O)[C@@H](CO)c1ccccc1)C2 (stereo partly drawn)
inactive

Request the reported Potency associated with C[C@]12CC[C@H](OS(=O)(=O)O)CC1=CCC1C2CC[C@]2(C)C(=O)CC[C@@H]12 (stereo partly drawn)
inactive

Request the reported Potency associated with `C[C@H](N)[C@@H](O)c1ccccc1`
inactive

Request the reported Potency associated with `CC1=C2[C@@H]3OC(=O)[C@@H](C)[C@@H]3CC[C@]2(C)C=CC1=O`
inactive

Request the reported Potency associated with `CCNC[C@H](O)c1cccc(O)c1`
inactive

Request the reported Potency associated with CCCC[N+]1(C)C2CC(OC(=O)C(CO)c3ccccc3)CC1C1OC12 (stereo not drawn)
inactive

###

assayed_system: Rap guanine nucleotide exchange factor 3 (Homo sapiens)
run_description: Counterscreen qHTS for antagonist of cAMP-regulated guanine nucleotide exchange factor 3 (EPAC1) (AID 1645888);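 note: fluorescence loss as bound BODIPY-GDP is released from Rap1B; % of control where 0% means no effect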
test_parameters: Rap1B-BODIPY-GDP nucleotide exchange, fluorescence; series mostly up to 154 µM
Records with an inconclusive call do not appear. Active and inactive are the calls of the source. The call rests on the fitted dose curve; in most records, active means well fitted inhibition curve with a large enough effect; inconclusive means small, poorly fitted or top-dose-only effect; inactive means no such curve, though single readings can be large or run the other way.
metric_name: activity change, negative = inhibition

compound	activity change, negative = inhibition
Cn1cc(/C=C2\C(=O)NC(=O)N(c3ccccc3)C2=O)c2ccccc21	inactive
Cn1cccc1/C=C1\C(=O)NC(=O)N(Cc2ccccc2)C1=O	inactive
Cn1cc(C=C2C(=O)NC(=O)NC2=O)c2ccccc21	inactive
O=C1NC(=O)N(Cc2ccco2)C(=O)/C1=C\c1ccc(-c2ccc(F)cc2)o1	-21.9% [at 30.8 µM] (inactive)
O=C1NC(=O)N(Cc2ccccc2)C(=O)/C1=C\C=C\c1ccco1	-17.1% [at 30.8 µM] (inactive)

# next compound below
Item: COc1cccc(C(c2nnnn2C2CCCCC2)N2CCC3(CC2)C(=O)NCN3c2ccccc2)c1OC (stereo not given) Test system: Rap guanine nucleotide exchange factor 3 (Homo sapiens) Read-out: activity change, negative = inhibition Value: ?
inactive

###

run_description: Cytotoxicity counterscreen for inhibitors of SARS-CoV-2 cell entry (AID 1645845); note: nearly all actives have a fitted effect of over 50% in size
test_parameters: cell viability (SARS-CoV-2 entry assay cells); series mostly up to 57.1 µM
Results filed as inconclusive are left out. The source made the active and inactive calls. The call rests on the fitted dose curve.

query_smiles	outcome
CCCCC(=O)OCC(=O)[C@]1(O)Cc2c(O)c3c(c(O)c2[C@@H](O[C@H]2C[C@H](NC(=O)C(F)(F)F)[C@H](O)[C@H](C)O2)C1)C(=O)c1c(OC)cccc1C3=O	inactive
NC(=O)c1cc(F)cc2c1C(=O)N(C1CCN(C3CCC(F)(F)CC3)CC1)C2	inactive
CCN(CC)CCOC(=O)c1ccc(N)cc1Cl	inactive
CN(CCOc1ccc(C[C@H](Nc2ccccc2C(=O)c2ccccc2)C(=O)O)cc1)c1ccccn1	inactive

###

run_description: Primary qHTS to identify inhibitors of SARS-CoV-2 cell entry (AID 1645846); note: nearly all actives have a fitted effect of over 45% in size
test_parameters: SARS-CoV-2 pseudovirus cell entry assay, luminescence; at 57.1 µM (top of the series) unless noted
Results filed as inconclusive are left out.
metric_name: activity change, negative = inhibition (%)
Dear colleague, please return just the value in %, with no unit written.

Request the reported activity change, negative = inhibition associated with C[C@H]1[C@H](O)[C@@H](C)/C=C/C=C/CC/C=C/C=C/C=C/C=C/C(OC2O[C@H](C)[C@@H](O)[C@H](N)[C@@H]2O)CC2O[C@](O)(CC(O)C(O)CCC(O)CC(O)CC(O)CC(=O)O[C@H]1C)CC(O)C2C(=O)O (stereo not given in full)
-22.7

Request the reported activity change, negative = inhibition associated with CC12C=CC(=O)NC1CCC1C2CCC2(C)C(C(=O)Nc3cc(C(F)(F)F)ccc3C(F)(F)F)CCC12 (stereo not given)
-8.68

Request the reported activity change, negative = inhibition associated with `COc1cc([C@@H](CC(=O)O)c2ccc(C)c(CN3C[C@@H](C)Oc4ccccc4S3(=O)=O)c2)cc2nnn(C)c12`
2.13

Request the reported activity change, negative = inhibition associated with `C=CCN1CC[C@]23c4c5ccc(O)c4O[C@H]2[C@@H](OCCOCCOCCOCCOCCOCCOCCOC)CC[C@@]3(O)[C@H]1C5`
-22.8

Request the reported activity change, negative = inhibition associated with `COC(=O)N1CC2(CC2)C[C@H](C(=O)NO)[C@H]1C(=O)N1CCN(c2ccccc2)CC1`
-12.3

Request the reported activity change, negative = inhibition associated with `CNCc1ccc(-c2cc(-c3nc(-c4ccc(S(=O)(=O)C(C)C)cc4)cnc3N)on2)cc1`
-25.7

Request the reported activity change, negative = inhibition associated with OCC1OC(c2ccc(Cl)c(Cc3ccc(OC4CCOC4)cc3)c2)C(O)C(O)C1O (stereo not given)
-20.7

Request the reported activity change, negative = inhibition associated with `O=C(c1ccc(NS(=O)(=O)c2cccc3cccnc23)cc1)N1CCN(CC2CC2)CC1`
-15.9

Request the reported activity change, negative = inhibition associated with COc1c(Nc2ncc(Cl)c(N[C@H]3[C@H](C(N)=O)[C@@H]4C=C[C@@H]3C4)n2)ccc2c1CCC(N1CCOCC1)CC2 (stereo not given in full)
-55.4

Request the reported activity change, negative = inhibition associated with `CCC(=O)N1CCOc2c(cc(-c3cc(OC)cc(OC)c3)cc2C(=O)N[C@H]2CCCN(C)C2)C1`
-26.1

Request the reported activity change, negative = inhibition associated with Cc1cccc(C)c1N(CCCc1cccnc1)C(=O)C(C)N (stereo not given)
-18.9

Request the reported activity change, negative = inhibition associated with `CNC(=O)c1c(-c2ccc(F)cc2)oc2cc(N(CCO)S(C)(=O)=O)c(C3CC3)cc12`
-3.84
